- Measurement Protocol: GFP drop in mixed WT/humanized-ribosome E. coli culture – GFP/RFP fluorescence, OD600, single point, bacterial rRNA inhibitor project, primary screen (AID 720706)
- Condition Notes: E. coli WT GFP vs humanized-ribosome RFP mutants, 24 h, DMSO median 0, no signal -100
In all, about 350,000 compounds went through this assay and about 5,500 (1.6%) were called active.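 The calls were made as follows: active = significant combined selectivity score with lowered wild-type GFP, culture density cut under 30%, mutant RFP and density less affected; inactive = any of these conditions unmet.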 The full list was thinned out, with actives kept by preference.
Give one outcome, nothing more. List: active, inactive

Query: What call does the record list for "C=C(C)CSc1nc(N)c2c3c(sc2n1)CCC3" ?
Result: active

Query: What call does the record list for "C[C@H](NC(=O)[C@H]1N[C@H]2c3ccc(-c4ccc(C(=O)N(C)C)cc4)c(=O)n3C[C@H]2[C@@H]1CO)c1ccccc1" ?
Result: inactive

Query: What call does the record list for "CO[C@H]1CN(C)C(=O)c2ccc(NC(=O)C3CC3)cc2OC[C@H](C)N(C(=O)CN2CCOCC2)C[C@@H]1C" ?
Result: inactive

Query: What call does the record list for "CC(C)NC(=O)Nc1ccc2c(c1)C(=O)N([C@@H](C)CO)C[C@@H](C)[C@H](CN(C)C)OCCCC[C@H](C)O2" ?
Result: inactive

Query: What call does the record list for "Nc1nc(SCC(=O)NCCN2CCOCC2)nc2sc3c(c12)CCC3" ?
Result: inactive

====

Hi there, I'd appreciate the recorded OD600 change for every entry that follows.
- Measurement Protocol: GFP drop in mixed WT/humanized-ribosome E. coli culture – GFP/RFP fluorescence, OD600, single point, bacterial rRNA inhibitor project, primary screen (AID 720706)
- Condition Notes: E. coli WT GFP vs humanized-ribosome RFP mutants, 24 h; measured here: OD600 growth, DMSO median 0, no signal -100
The whole screen tested about 350,000 compounds, of which about 5,500 (1.6%) were called active. For the sample, actives were picked, then their nearest neighbours and some compounds at random.

Query: // fetch OD600 change given entry "CC(=O)N1[C@@H]2c3ccc(-c4ccccc4)c(=O)n3C[C@@H]2[C@@H](CO)[C@@H]1C(=O)NCc1ccccc1F"
Result: 0.235%

Query: // fetch OD600 change given entry "O=C(C[C@H]1CC[C@@H]2[C@H](COC[C@H](O)CN2Cc2ccc(Oc3ccccc3)cc2)O1)N1CCN(c2ccccc2)CC1"
Result: -41.1%

Query: // fetch OD600 change given entry "CC(C)NC(=O)N(C)C[C@H]1OCc2ccccc2-c2c(n(C)c3ccccc23)C(=O)N([C@H](C)CO)C[C@@H]1C"
Result: 5.88%

Query: // fetch OD600 change given entry "COCCNC(=O)C[C@H]1C[C@H]2c3cc(NS(C)(=O)=O)ccc3O[C@H]2[C@H](CO)O1"
Result: -0.685%

Query: // fetch OD600 change given entry N#Cc1ccc(-c2ccc(C3[C@@H]4CN(S(=O)(=O)c5cccc(Cl)c5)C[C@H]3N4)cc2)cc1 (stereo partly drawn)
Result: -51%

Query: // fetch OD600 change given entry "CC(C)CNc1ncnc2c1cnn2Cc1ccc(Cl)cc1"
Result: -17.1%

Query: // fetch OD600 change given entry "O=C(COC(=O)CCCSc1nc2ccccc2[nH]1)Nc1ccc(Oc2ccccc2)cc1"
Result: -55%

Query: // fetch OD600 change given entry "O=C(CSc1nc2ccccc2[nH]1)N/N=C/C=C\c1ccccc1[N+](=O)[O-]"
Result: 3.26%
